# Tested on: Capan-1, pancreatic adenocarcinoma
# assayText: Proliferation assay (MTS, 72 h), Capan-1
# Assay type: cell-based, human
# experimentalSetup: Homo sapiens, CAPAN-1
assayMetric: IC50

Consider the worked cases shown below.
{"molecule": "COc1cc([C@@H]2c3cc4c(cc3[C@@H](O[C@@H]3O[C@@H]5CO[C@@H](C)O[C@H]5[C@H](O)[C@H]3O)[C@H]3COC(=O)[C@H]23)OCO4)cc(OC)c1O [ETP, etoposide, reference compound]", "IC50": "0.43 µM"}
{"molecule": "CN(C)c1ccc(/C=N/c2nc3ccc(C#N)cc3n2-c2ccccc2)cc1 [Compound 39]", "IC50": "> 100 µM"}
{"molecule": "Cn1c(/N=C/c2ccc([N+](=O)[O-])cc2)nc2ccc(C#N)cc21 [Compound 37]", "IC50": "> 100 µM"}
{"molecule": "CCN(CC)c1ccc(/C=N/c2nc3ccc(C#N)cc3n2C)c(O)c1 [Compound 36]", "IC50": "> 100 µM"}
{"molecule": "CCN(CC)c1ccc(/C=N/c2nc3ccccc3n2-c2ccccc2)c(O)c1 [Compound 40]", "IC50": "2.4 µM"}

Challenge: // fetch IC50 given entry CC(C)Cn1c(/N=C/c2ccc([N+](=O)[O-])cc2)nc2ccc(C#N)cc21 [Compound 32]
Response given: > 100 µM

Challenge: Return IC50 (reported value) for this molecule: CCCCCCn1c(/N=C/c2ccc(N(C)C)cc2)nc2ccc(C#N)cc21 [Compound 43]
Response given: > 100 µM

Challenge: Read the entry CCN(CC)c1ccc(/C=N/c2nc3ccccc3n2CC(C)C)c(O)c1 [Compound 30] and write its reported IC50.
Response given: > 100 µM

Challenge: Look up and report measured IC50 for this entry: CN(C)c1ccc(/C=N/c2nc3ccc(C#N)cc3n2C)cc1 [Compound 34]
Response given: > 100 µM

Challenge: Respond only with IC50 recorded for CC(C)Cn1c(/N=C/c2ccc(N(C)C)cc2)nc2ccccc21 [Compound 28]
Response given: > 100 µM

Challenge: Consider the molecule CCCCCCn1c(/N=C/c2ccc(N(CC)CC)cc2O)nc2ccc(C#N)cc21 [Compound 45] . State its measured IC50.
Response given: > 100 µM

Challenge: Look up and state reported IC50 for COC(=O)Nc1nc2ccc(C(=O)c3cccs3)cc2[nH]1 [NZO, nocodazole, reference compound]
Response given: 0.1 µM

Challenge: Retrieve IC50 measured for CCCCCCn1c(/N=C/c2ccc(N(CC)CC)cc2O)nc2ccccc21 [Compound 44] and print it.
Response given: > 100 µM
